Listed below: pKd values for each entry.
- testSystem: T1, Human PD-1 extracellular domain, hFc tag (human, UniProt Q15116 25-170)
- T1 construct: extracellular domain; also called hPro1.ECD.hFc; not shown: human Fc tag at C-terminus
- T1 sequence (Q15116 25-170): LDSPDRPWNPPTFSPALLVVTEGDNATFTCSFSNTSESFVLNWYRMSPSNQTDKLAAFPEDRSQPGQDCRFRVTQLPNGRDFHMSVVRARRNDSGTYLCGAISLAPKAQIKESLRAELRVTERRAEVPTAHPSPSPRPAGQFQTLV
- assayName: SPR Biacore 8K; PD-1-hFc captured on anti-human Fc chip, VHH injected; 1:1 fit
pKd: −log10 of the molar value.

binder	pKd
AP17R1-2H2-Z1-R1-4B2 (VHH, not shown: his- and c-Myc-tag from vector pETbac) VHH: QVQLVESGGGVVQPGGSLRLSCAASDSISSLVNMGWYRQAPGKQRELVALIANYITHYADFVKGRFTISRDNSKNTLYLQMNSLRAEDTAVYYCYARNIIVDYWGQGTLVTVSS	8.04
AP17R1-2H2-Z1-R1-29B6 (VHH, not shown: his- and c-Myc-tag from vector pETbac) VHH: QVQLVESGGGVVQPGGSLRLSCAASDSIDSLVNMGWYRQAPGKQRELVALIANYITHYADFVKGRFTISRDNSKNTLYLQMNSLRAEDTAVYYCYARNIYVDYWGQGTLVTVSS	8.15
AP17R1-2H2-Z1-R1-14F1 (VHH, not shown: his- and c-Myc-tag from vector pETbac) VHH: QVQLVESGGGVVQPGGSLRLSCAASDSIDSLVNMGWYRQAPGKQRELVALIAYYITHYADFVKGRFTISRDNSKNTLYLQMNSLRAEDTAVYYCYARNIIVDYWGQGTLVTVSS	8.48
AP17R1-2H2-Z1-R1-27A2 (VHH, not shown: his- and c-Myc-tag from vector pETbac) VHH: QVQLVESGGGVVQPGGSLRLSCAASDSIDSLVNMGWYRQAPGKQRELVALIANYITHYADFVKGRFTISRDNSKNTLYLQMNSLRAEDTAVYYCYARSIIVDYWGQGTLVTVSS	8.07
AP17R1-2H2-Z1-R1-14A1 (VHH, not shown: his- and c-Myc-tag from vector pETbac) VHH: QVQLVESGGGVVQPGGSLRLSCAASDSIDSLVNMGWYRQAPGKQRELVALIATYITHYADFVKGRFTISRDNSKNTLYLQMNSLRAEDTAVYYCYARNIIVDYWGQGTLVTVSS	8.69
AP17R1-2H2-Z1-R1-29B2 (VHH, not shown: his- and c-Myc-tag from vector pETbac) VHH: QVQLVESGGGVVQPGGSLRLSCAASDSIDSLVNMGWYRQAPGKQRELVALIANYITHYADFVKGRFTISRDNSKNTLYLQMNSLRAEDTAVYYCYARNIRVDYWGQGTLVTVSS	8.07
AP17R1-2H2-Z1 (VHH, also called the humanized AP17R1-2H2; not shown: his- and c-Myc-tag from vector pETbac) VHH: QVQLVESGGGVVQPGGSLRLSCAASDSIDSLVNMGWYRQAPGKQRELVALIANYITHYADFVKGRFTISRDNSKNTLYLQMNSLRAEDTAVYYCYARNIIVDYWGQGTLVTVSS	7.90
AP17R1-2H2-Z1-R1-6E1 (VHH, not shown: his- and c-Myc-tag from vector pETbac) VHH: QVQLVESGGGVVQPGGSLRLSCAASDSIDSMVNMGWYRQAPGKQRELVALIANYITHYADFVKGRFTISRDNSKNTLYLQMNSLRAEDTAVYYCYARNIIVDYWGQGTLVTVSS	8.13
AP17R1-2H2-Z1-R1-30D3 (VHH, not shown: his- and c-Myc-tag from vector pETbac) VHH: QVQLVESGGGVVQPGGSLRLSCAASDSIDSLVNMGWYRQAPGKQRELVALIANYITHYADFVKGRFTISRDNSKNTLYLQMNSLRAEDTAVYYCYARNIIEDYWGQGTLVTVSS	8.17
AP17R1-2H2-Z1-R1-14F3 (VHH, not shown: his- and c-Myc-tag from vector pETbac) VHH: QVQLVESGGGVVQPGGSLRLSCAASDSIDSLVNMGWYRQAPGKQRELVALIAWYITHYADFVKGRFTISRDNSKNTLYLQMNSLRAEDTAVYYCYARNIIVDYWGQGTLVTVSS	8.63
AP17R1-2H2-Z1-R1-4D8 (VHH, not shown: his- and c-Myc-tag from vector pETbac) VHH: QVQLVESGGGVVQPGGSLRLSCAASDSIQSLVNMGWYRQAPGKQRELVALIANYITHYADFVKGRFTISRDNSKNTLYLQMNSLRAEDTAVYYCYARNIIVDYWGQGTLVTVSS	8.02
